Hey, just so you know, these numbers are from the antibiotic and cytotoxicity screens of Wong et al. (2023).

Tested on: HepG2
Protocol Notes: cytotoxicity call (relative viability < 0.9)
Assay Setup: 10 µM
Out of some 39,000 compounds screened, about 3,300 (8.5%) were called active. The sample as a whole holds a higher share of actives than the screen did.
// allowed return values: active, inactive

Record excerpt, results attached:
NC[C@@H]1CC(=O)N(c2ccccc2)C1 :: active
C[C@@H]1CCCCO[C@H](CN(C)CC2CC2)[C@H](C)CN([C@@H](C)CO)C(=O)c2cc(NC(=O)Nc3ccc(C(F)(F)F)cc3)ccc2O1 :: active
Cc1noc(C)c1S(=O)(=O)Nc1ccc2c(c1)C(=O)N([C@@H](C)CO)C[C@@H](C)[C@@H](CN(C)C(=O)Nc1ccc(F)cc1)OCCCC[C@@H](C)O2 :: inactive

Shifting focus to the molecule that follows.
Exercise: Recorded call for C[C@@H]1CCCCO[C@H](CN(C)CC2CC2)[C@H](C)CN([C@H](C)CO)C(=O)c2cc(NC(=O)Nc3ccc(C(F)(F)F)cc3)ccc2O1 ?
Key: active
